measurement.target: FLT3 (Homo sapiens)
Sequence (P36888 27-993): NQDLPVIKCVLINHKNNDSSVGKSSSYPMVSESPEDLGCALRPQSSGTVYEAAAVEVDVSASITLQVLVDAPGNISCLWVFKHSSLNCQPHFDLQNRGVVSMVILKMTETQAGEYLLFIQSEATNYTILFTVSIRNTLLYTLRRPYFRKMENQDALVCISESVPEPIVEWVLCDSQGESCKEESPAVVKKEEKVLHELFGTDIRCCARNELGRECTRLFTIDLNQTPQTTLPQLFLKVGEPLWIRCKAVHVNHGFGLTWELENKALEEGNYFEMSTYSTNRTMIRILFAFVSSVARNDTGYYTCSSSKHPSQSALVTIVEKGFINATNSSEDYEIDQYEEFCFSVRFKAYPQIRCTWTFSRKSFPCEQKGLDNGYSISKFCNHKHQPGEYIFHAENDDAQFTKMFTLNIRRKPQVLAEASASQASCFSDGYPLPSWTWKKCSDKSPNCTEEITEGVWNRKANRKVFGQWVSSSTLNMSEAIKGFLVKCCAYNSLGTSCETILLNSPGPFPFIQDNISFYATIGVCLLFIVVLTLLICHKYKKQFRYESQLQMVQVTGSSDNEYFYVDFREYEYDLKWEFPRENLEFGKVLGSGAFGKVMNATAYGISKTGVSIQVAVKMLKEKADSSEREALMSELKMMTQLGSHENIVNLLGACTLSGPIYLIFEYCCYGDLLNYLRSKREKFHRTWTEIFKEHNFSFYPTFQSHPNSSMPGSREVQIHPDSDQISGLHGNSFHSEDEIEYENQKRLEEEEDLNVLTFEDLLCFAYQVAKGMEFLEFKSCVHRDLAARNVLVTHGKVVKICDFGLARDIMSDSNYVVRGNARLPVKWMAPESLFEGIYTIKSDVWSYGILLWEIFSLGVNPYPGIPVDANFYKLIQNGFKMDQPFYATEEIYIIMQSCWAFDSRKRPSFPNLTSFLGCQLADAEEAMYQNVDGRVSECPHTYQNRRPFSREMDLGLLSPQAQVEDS
measurement.description: FLT3 biochemical assay (ADP Hunter);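 further: FLT3 enzymatic activity quantified through the ADP produced by the kinase reaction, detected with an ADP Hunter readout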
condition.details: semi-quantitative class
Each item that follows carries a reported IC50.

Past entries and their recorded results:
FC(F)(F)Oc1cccc(-n2nnc3ccc(NCC4CCN(CC5CC5)CC4)nc32)c1 [2-31]: > 1000 nM
FC(F)(F)Oc1cccc(-n2nnc3cc(Cl)c(NC4CC5(CCNCC5)C4)nc32)c1 [2-79]: 100 to 1000 nM
FC(F)(F)c1cccc(-n2nnc3cc(Cl)c(NCC4CCNCC4)nc32)c1 [2-83]: < 100 nM
CN1CCC(CNc2ccc3nnn(-c4cccc(OC(F)(F)F)c4)c3n2)CC1 [2-19]: > 1000 nM
OC1CCN(c2ccc3nnn(-c4cccc(OC(F)(F)F)c4)c3n2)CC1 [2-70]: > 1000 nM
CN1CCC(CNc2nc3c(cc2Cl)nnn3-c2cccc(OC(F)(F)F)c2)CC1 [2-55]: 100 to 1000 nM
FC(F)(F)Oc1cccc(-n2nnc3ccc(N4CCC5(CCNCC5)CC4)nc32)c1 [2-45]: > 1000 nM
FC(F)(F)Oc1cccc(-n2nnc3ccc(N4CCC5(CCNC5)C4)nc32)c1 (stereo not shown) [2-64]: > 1000 nM

Q: So what's the measured IC50 for this one? CC(C)CN1CCC(CNc2ccc3nnn(-c4cccc(OC(F)(F)F)c4)c3n2)CC1 [2-74]
Result: > 1000 nM

Q: Same question, FC(F)(F)Oc1cccc(-n2nnc3ccc(N4CCC5(CC4)CNCCO5)nc32)c1 [2-61] this time
Result: > 1000 nM

Q: Continue with FC(F)(F)Oc1cccc(-n2nnc3ccc(NCC4CCN(CC5CCOCC5)CC4)nc32)c1 [2-75]
Result: > 1000 nM

Q: Note, next up: CS(=O)(=O)NC1CCN(c2ccc3nnn(-c4cccc(OC(F)(F)F)c4)c3n2)CC1 [2-80]
Result: > 1000 nM

Q: Okay, and FC(F)(F)Oc1cccc(-n2nnc3cc(Br)c(NCC4CCNCC4)nc32)c1 [2-89] ?
Result: < 100 nM

Q: What do we get for O[C@H]1CC[C@@H](Nc2nc3c(cc2Cl)nnn3-c2cccc(OC(F)(F)F)c2)CC1 [2-85] ?
Result: 100 to 1000 nM

Q: Could you do the same for CS(=O)(=O)N1CCC(Nc2ccc3nnn(-c4cccc(OC(F)(F)F)c4)c3n2)CC1 [2-56] , please?
Result: > 1000 nM
